These measurements were taken from PubChem BioAssay (NCATS).

experiment: qHTS assay for small molecule antagonists of retinoid X receptor alpha signaling (AID 588546); conditions: HEK293T RXRa-UAS-bla, beta-lactamase ratio, antagonist mode; measured here: W530 green channel, cytotoxicity proxy;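 also: cells stimulated with 9-cis-retinoic acid as agonist; % is scaled to controls: 0 for no effect and ±100 for the full control effect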
Inconclusive results are not listed.
// reported max response for each item listed
readout-kind: max response (%)

> print(dat)
                                    compound  output.unit  observed.value
 1         COC[C@H](C)N(C(=O)CCl)c1c(C)csc1C            %          -0.446
 2         CC(C)N(C(=O)SCC(Cl)=C(Cl)Cl)C(C)C            %             9.5
 3  Cc1ccccc1CO[C@@H]1C[C@@]2(C(C)C)CC[C@]1(C)O2            %           0.789
 4  CCCC1COC(Cn2cncn2)(c2ccc(Cl)cc2Cl)O1 (stereo unspecified)            %            5.44
 5  Cc1cnc(C2=NC(C)(C(C)C)C(=O)N2)c(C(=O)O)c1 (stereo unspecified)            %            8.17
 6               CNC(=O)/C=C(\C)OP(=O)(OC)OC            %           -16.8
 7            N#Cc1c(Cl)c(Cl)c(Cl)c(C#N)c1Cl            %           -33.7
 8  Cc1c(COC(=O)C2C(/C=C(\Cl)C(F)(F)F)C2(C)C)cccc1-c1ccccc1 (stereo unspecified)            %            1.28
 9              CON(C)C(=O)Nc1ccc(Cl)c(Cl)c1            %           -15.9
10                      O=C(O)COc1ccc(Cl)cc1            %           0.278
11  NS(=O)(=O)C(F)(F)C(F)(F)C(F)(F)C(F)(F)C(F)(F)C(F)(F)C(F)(F)C(F)(F)F            %           -4.16
12     CCCCC(CC)C(=O)Cl (stereo unspecified)            %           -9.74
13                   CCNc1nc(NC(C)C)nc(OC)n1            %           -8.69
14        CCOC(=O)Nc1cccc(OC(=O)Nc2ccccc2)c1            %          0.0057
15                CC(=NC#N)N(C)Cc1ccc(Cl)nc1            %           -1.52
16                CC1(C)CON(Cc2ccccc2Cl)C1=O            %           -9.42
17                      c1cc2c3c(cccc3c1)CC2            %           -4.84
18  Cc1c(F)c(F)c(COC(=O)C2C(/C=C(\Cl)C(F)(F)F)C2(C)C)c(F)c1F (stereo unspecified)            %           -8.23
19                   CC(C)(C#N)N=NC(C)(C)C#N            %           -2.24
20  CCC[CH2][Sn]([CH2]CCC)([CH2]CCC)[CH2]CCC            %            6.88
21  CC(C)C1(C)N=C(c2ncccc2C(=O)O)NC1=O (stereo unspecified)            %             -22
22               CCOP(=O)(OCC)OP(=O)(OCC)OCC            %           -3.28
23  O=C(NC(=O)c1c(F)cccc1F)Nc1cc(Cl)c(OC(F)(F)C(F)C(F)(F)F)c(Cl)c1F (stereo unspecified)            %           -6.84
24  COC(=O)C(C)Oc1ccc(Oc2ccc(Cl)cc2Cl)cc1 (stereo unspecified)            %           -8.87
25                CCNC(=O)NC(=O)/C(C#N)=N/OC            %           -2.66
26  CC(C)CC(C)Nc1ccc(Nc2ccccc2)cc1 (stereo unspecified)            %           -4.53
